experiment: Caco-2 assay (permeability PappAB, PappBA, efflux ratio); type: in vitro ADME; conditions: human, Caco-2; efflux ratio PappBA/PappAB; 10 μM test compound, pH 7.4; read-out: Caco ER
Categories are defined by ranges of efflux ratio at 90 min, 10 μM, namely low = under 2, moderate = from 2 up to 10, high = 10 and over

Ask: Hello team, could you let me know which band the following compound falls into: [2H]C([2H])([2H])N1C[C@H](F)C[C@H]1[C@H](C)Oc1cc(N2CCNC3(CC3)C2)nc(-c2noc3c2CCC[C@@]32CCCc3sc(N)c(C#N)c32)n1
Result: low

Ask: Quick check: band for Cc1cn(-c2cc(O[C@@H](C)[C@@H]3CCCN3C)nc(-c3noc4c3CCC[C@@]43CCCc4sc(N)c(C#N)c43)n2)nn1
Result: low

Ask: Each compound maps to one class by efflux ratio at 90 min, 10 μM. Which class for C[C@H](Oc1cc(-n2ccnc2)nc(-c2noc3c2CCC[C@@]32CCCc3sc(N)c(C#N)c32)n1)[C@@H]1CCCN1C ?
Result: moderate

Ask: Kindly state the category for this compound: C[C@H](Oc1cc([C@@H]2CCN(C)C2)nc(-c2noc3c2CCC[C@@]32CCCc3sc(N)c(C#N)c32)n1)[C@@H]1CCCN1C
Result: high

Ask: Please classify: C[C@H](Oc1cc(-n2ccc(-c3cn(C4CCOCC4)nn3)n2)nc(-c2noc3c2CCC[C@@]32CCCc3sc(N)c(C#N)c32)n1)[C@@H]1CCCN1C
Result: moderate

Ask: # bin lookup: classify C[C@H](Oc1cc(N2C[C@H]3CN(C)C[C@H]3C2)nc(-c2noc3c2CCC[C@@]32CCCc3sc(N)c(C#N)c32)n1)[C@@H]1CCCN1C by its efflux ratio at 90 min, 10 μM
Result: high

Ask: Which efflux ratio at 90 min, 10 μM band matches C[C@H](Oc1cc([C@@H]2CCOC2)nc(-c2onc3c2CCC[C@@]32CCCc3sc(N)c(C#N)c32)n1)[C@@H]1CCCN1C ?
Result: low

Ask: State the band of C[C@H](Oc1cc(N2CCNC[C@]23CCOC3)nc(-c2noc3c2CCC[C@@]32CCCc3sc(N)c(C#N)c32)n1)[C@@H]1CCCN1C
Result: high

Ask: Hey, which category is C[C@H](Oc1cc(C2CCCO2)nc(-c2noc3c2CCC[C@@]32CCCc3sc(N)c(C#N)c32)n1)[C@@H]1CCCN1C (stereo partly shown) in, do you know?
Result: low

Ask: Looking at CO[C@H]1CCN(C)[C@@H]1[C@H](C)Oc1cc(-n2ccc(C(N)=O)n2)nc(-c2noc3c2CCC[C@@]32CCCc3sc(N)c(C#N)c32)n1 , which class would you pick?
Result: low

Ask: Exam item: assign C[C@H](Oc1cc(-n2ccc(C(N)=O)n2)nc(-c2noc3c2CCC[C@@]32CCCc3sc(N)c(C#N)c32)n1)[C@@H]1CCCN1C to the correct category.
Result: moderate

Ask: Which bin, given its efflux ratio at 90 min, 10 μM, does CNC(=O)c1ccn(-c2cc(O[C@@H](C)[C@@H]3CCCN3C)nc(-c3noc4c3CCC[C@@]43CCCc4sc(N)c(C#N)c43)n2)n1 occupy?
Result: moderate

Ask: Category of C[C@H](Oc1cc(-n2cc3c(n2)CNC3)nc(-c2noc3c2CCC[C@@]32CCCc3sc(N)c(C#N)c32)n1)[C@@H]1CCCN1C , please.
Result: high

Ask: Lab note: sort Cc1cn(C)nc1-c1cc(O[C@@H](C)[C@@H]2CCCN2C)nc(-c2noc3c2CCC[C@@]32CCCc3sc(N)c(C#N)c32)n1 into the matching efflux ratio at 90 min, 10 μM band.
Result: low

Ask: Textbook exercise: identify the category of the compound given here, C[C@H](Oc1cc(N2CCNC[C@]23CCOC3)nc(-c2onc3c2CCC[C@@]32CCCc3sc(N)c(C#N)c32)n1)[C@@H]1CCCN1C , according to its measured value.
Result: high

Ask: Class (by measured efflux ratio at 90 min, 10 μM) for C[C@H](Oc1cc(-c2cnsc2)nc(-c2onc3c2CCC[C@@]32CCCc3sc(N)c(C#N)c32)n1)[C@@H]1CCCN1C
Result: low

Ask: Hi there! Could you help me figure out the category for C[C@H](Oc1cc(-n2cncn2)nc(-c2onc3c2CCC[C@@]32CCCc3sc(N)c(C#N)c32)n1)[C@@H]1CCCN1C please?
Result: low

Ask: Classify this compound: CC(=O)N1CC=C(c2cc(O[C@@H](C)[C@@H]3CCCN3C)nc(-c3noc4c3CCC[C@@]43CCCc4sc(N)c(C#N)c43)n2)CC1
Result: high

Ask: Category of C[C@H](Oc1cc(N2CCC[C@H](O)C2)nc(-c2noc3c2CCC[C@@]32CCCc3sc(N)c(C#N)c32)n1)[C@@H]1CCCN1C , please.
Result: high

Ask: Kindly identify the class of C[C@H](Oc1cc(N2CCOC2=O)nc(-c2noc3c2CCC[C@@]32CCCc3sc(N)c(C#N)c32)n1)[C@@H]1CCCN1C .
Result: moderate

Ask: // return the class label for C[C@H](Oc1cc(N2CC[C@H](N(C)C)C2)nc(-c2noc3c2CCC[C@@]32CCCc3sc(N)c(C#N)c32)n1)[C@@H]1CCCN1C
Result: high

Ask: Input CO[C@@H]1C[C@@H]([C@H](C)Oc2cc(N3CCN(C)C4(CC4)C3)nc(-c3onc4c3CCC[C@@]43CCCc4sc(N)c(C#N)c43)n2)N(C)C1 ; output its category
Result: low

Ask: Lab note: sort CO[C@@H]1C[C@@H]([C@H](C)Oc2cc(-c3ccn(C)n3)nc(-c3noc4c3CCC[C@@]43CCCc4sc(N)c(C#N)c43)n2)N(C)C1 into the matching efflux ratio at 90 min, 10 μM band.
Result: low

Ask: Form field 'band' for C[C@H]1CN(C)CCCN1c1cc(N2CC[C@H](N(C)C)C2)nc(-c2noc3c2CCC[C@@]32CCCc3sc(N)c(C#N)c32)n1
Result: high

###

Field: IC50. Provide a value for each of the compounds that follow.
test system: MKN1 cells; assay: MKN1 CTG proliferation assay (120 h) (gastric cancer, wt amplified); type: cell-based; conditions: Homo sapiens, MKN-1, assay 2, CTG 120 h, read-out: MKN1 (assay 2) IC50
Write it as a number; the unit µM goes unstated.

Ask: What value of IC50 has been recorded for this entry: CO[C@H]1CCN(C)[C@@H]1[C@H](C)Oc1cc(N2CCNC3(CC3)C2)nc(-c2noc3c2CCC[C@@]32CCCc3sc(N)c(C#N)c32)n1
Result: 0.227

Ask: # input compound: C[C@H](Oc1cc(N2CCNC3(CC3)C2)nc(-c2onc3c2CCC[C@@]32CCCc3sc(N)c(C#N)c32)n1)[C@@H]1C[C@@H](F)CN1C ; wanted: its IC50
Result: 0.51

Ask: Look up IC50 for this compound: C[C@H](Oc1cc(-n2cc3ccn([C@@H]4CCOC4)c(=O)c3n2)nc(-c2noc3c2CCC[C@@]32CCCc3sc(N)c(C#N)c32)n1)[C@@H]1CCCN1C
Result: 0.041

###

Assign fraction unbound to each entry below.
Experiment: Plasma protein binding assay (PPB), equilibrium dialysis, 10% FCS in PBS
Format: in vitro ADME
Conditions: bovine, read-out: PPB 10% FCS (% fu)
Experimental: Binding of test compounds to plasma was determined using equilibrium dialysis (ED) and quantitative mass spectrometry interfaced with liquid chromatography (LC-MS). […] After incubation, protein was precipitated from aliquots of each chamber and the concentration of test compound in the supernatant of the plasma-containing compartment (Cserum) and of the buffer-containing compartment (Cbuffer) was determined by LC-MS. […]

Ask: Consider the compound [2H]C([2H])([2H])N1C[C@H](F)C[C@H]1[C@H](C)Oc1cc(N2CCN(C)C3(CC3)C2)nc(-c2noc3c2CCC[C@@]32CCCc3sc(N)c(C#N)c32)n1 and give its measured fraction unbound.
Result: 0.06

Ask: Entry C[C@H](Oc1cc(N2CCNC3(CCC3)C2)nc(-c2onc3c2CCC[C@@]32CCCc3sc(N)c(C#N)c32)n1)[C@@H]1CCCN1C has what fraction unbound?
Result: 0.68

Ask: Would you kindly share the measured fraction unbound for C[C@H]1CN(C)CCCN1c1cc(N2CCN(C)CC2)nc(-c2onc3c2CCC[C@@]32CCCc3sc(N)c(C#N)c32)n1 ?
Result: 0.36

Ask: Reported fraction unbound for C[C@H](Oc1cc(N2CCNCC2)nc(-c2noc3c2CCC[C@@]32CCCc3sc(N)c(C#N)c32)n1)[C@@H]1CCCN1C : what is it?
Result: 0.61

Ask: Suppose we examine the compound CO[C@@H]1C[C@@H]([C@H](C)Oc2cc(-c3ccn(C4COC4)n3)nc(-c3noc4c3CCC[C@@]43CCCc4sc(N)c(C#N)c43)n2)N(C)C1 ; what fraction unbound value has been reported?
Result: 0.24

Ask: Which fraction unbound is reported for this compound? C[C@H](Oc1cc(C2CCCO2)nc(-c2noc3c2CCC[C@@]32CCCc3sc(N)c(C#N)c32)n1)[C@@H]1CCCN1C (stereo partly shown)
Result: 0.39

Ask: fraction unbound lookup needed for Cc1ccc(-c2cc(O[C@@H](C)[C@@H]3CCCN3C)nc(-c3onc4c3CCC[C@@]43CCCc4sc(N)c(C#N)c43)n2)cn1 , thanks.
Result: 0.3

Ask: Which fraction unbound reading was recorded for the compound C[C@H](Oc1cc(-n2nccc2-c2ccncc2)nc(-c2noc3c2CCC[C@@]32CCCc3sc(N)c(C#N)c32)n1)[C@@H]1CCCN1C ?
Result: 0.01

Ask: Reported fraction unbound for COCCNC(=O)c1ccn(-c2cc(O[C@@H](C)[C@@H]3CCCN3C)nc(-c3onc4c3CCC[C@@]43CCCc4sc(N)c(C#N)c43)n2)n1 : what is it?
Result: 0.28

Ask: Need fraction unbound of C[C@H](Oc1cc(-n2cc(C(=O)N(C)C)nn2)nc(-c2noc3c2CCC[C@@]32CCCc3sc(N)c(C#N)c32)n1)[C@@H]1CCCN1C , thanks.
Result: 0.31

Ask: For the compound C[C@H](Oc1cc(-c2cccc(C(N)=O)c2)nc(-c2noc3c2CCC[C@@]32CCCc3sc(N)c(C#N)c32)n1)[C@@H]1CCCN1C , what fraction unbound is on record?
Result: 0.04

Ask: Look up fraction unbound for this compound: C[C@H](Oc1cc(-c2ccn(C)n2)nc(-c2noc3c2CCC[C@@]32CCCc3sc(N)c(C#N)c32)n1)[C@@H]1C[C@H](F)CN1C
Result: 0.11

Ask: Look at this compound and give its reported fraction unbound. C[C@H](Oc1cc(N2CCN(C)CC2)nc(-c2noc3c2CCC[C@@]32CCCc3sc(N)c(C#N)c32)n1)[C@@H]1CCCN1C
Result: 0.26
